This section presents molecules with their documented remaining activity at 1 µM values.
molecular target: CAMK1 (Homo sapiens); assay: Kinase profiling (radiometric filter-binding); assay type: biochemical; details: CAMK1, 1 µM inhibitor; read-out: Residual activity, %
Sequence (Q14012 whole entry): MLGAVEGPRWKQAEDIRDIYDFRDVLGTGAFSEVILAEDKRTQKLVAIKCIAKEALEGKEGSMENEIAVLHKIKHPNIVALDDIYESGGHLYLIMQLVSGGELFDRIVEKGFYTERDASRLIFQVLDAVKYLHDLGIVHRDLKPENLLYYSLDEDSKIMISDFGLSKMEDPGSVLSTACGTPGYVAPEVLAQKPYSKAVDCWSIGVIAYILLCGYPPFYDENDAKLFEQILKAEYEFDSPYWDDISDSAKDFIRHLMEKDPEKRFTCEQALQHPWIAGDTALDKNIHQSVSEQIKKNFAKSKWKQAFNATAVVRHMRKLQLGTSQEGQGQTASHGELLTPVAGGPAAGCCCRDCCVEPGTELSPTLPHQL
Square brackets hold non-standard residues; d marks the D form. Peptide text beside a SMILES is read from it. * marks the point of attachment. X3 = O=C(CCCCCNCc1nc2c(sc3cc(Br)cnc32)c(=O)[nH]1)*
Reported Property: remaining activity at 1 µM (%)

N=C(N)NCCC[C@@H](NC(=O)CCCCCNC(=O)Cn1cnc2c(I)c(I)c(I)c(I)c21)C(=O)N[C@H](CCCNC(=N)N)C(=O)N[C@H](CCCNC(=N)N)C(=O)N[C@H](CCCNC(=N)N)C(=O)N[C@H](CCCNC(=N)N)C(=O)N[C@H](CCCNC(=N)N)C(=O)N[C@H](CCCCN)C(N)=O [ARC-3125, TIBI-CH2-C(=O)-Ahx-(D-Arg)6-D-Lys-NH2] : 3
N=C(N)NCCC[C@@H](NC(=O)CCCCCNCc1nc2c(sc3cc(Br)cnc32)c(=O)[nH]1)C(=O)N[C@H](CCCNC(=N)N)C(=O)N[C@H](CCCNC(=N)N)C(=O)N[C@H](CCCNC(=N)N)C(=O)N[C@H](CCCNC(=N)N)C(=O)N[C@H](CCCNC(=N)N)C(=O)N[C@H](CCCCN)C(N)=O [ARC-3126, BPTP-Ahx-(D-Arg)6-D-Lys-NH2] (X3-[dR][dR][dR][dR][dR][dR][dK]-NH2) : 55
N=C(N)NCCC[C@@H](NC(=O)CNC(=O)[C@@H](CCCNC(=N)N)NC(=O)[C@@H](CCCNC(=N)N)NC(=O)CCCCCCCNCc1nc2c(sc3cc(Br)cnc32)c(=O)[nH]1)C(=O)N[C@H](CCCCN)C(N)=O [Compound 1, BPTP-Aoc-(D-Arg)2-Gly-D-Arg-D-Lys-NH2] : 81
N=C(N)NCCC[C@@H](NC(=O)CNC(=O)[C@@H](CCCNC(=N)N)NC(=O)[C@@H](CCCNC(=N)N)NC(=O)Cn1cc(CNCc2nc3c(sc4ccc(Br)cc43)c(=O)[nH]2)nn1)C(=O)N[C@H](CCCCN)C(N)=O [Compound 3, BBTP-Amt-(D-Arg)2-Gly-D-Arg-D-Lys-NH2] : 49
CN(C)c1ccc2c(c1)Oc1cc(N(C)C)ccc1C21OC(=O)c2cc(C(=O)NCCCC[C@@H](NC(=O)[C@@H](CCCNC(=N)N)NC(=O)CNC(=O)[C@@H](CCCNC(=N)N)NC(=O)[C@@H](CCCNC(=N)N)NC(=O)CCCCc3cn(Cc4nc5c(sc6ccc(Br)cc65)c(=O)[nH]4)nn3)C(N)=O)ccc21 [Compound 8] : 49
N=C(N)NCCC[C@@H](NC(=O)CNC(=O)[C@@H](CCCNC(=N)N)NC(=O)[C@@H](CCCNC(=N)N)NC(=O)CCCCCCCNCc1nc2c(sc3ccc(Br)cc32)c(=O)[nH]1)C(=O)N[C@H](CCCCN)C(N)=O [Compound 2, BBTP-Aoc-(D-Arg)2-Gly-D-Arg-D-Lys-NH2] : 81

The values you see were collected from paper PMC8307404.
